Every entry's value here was drawn from paper PMC12175894.

Tested Target: orexin OX2 (Homo sapiens, UniProt O43614)
Sequence (O43614 1-444): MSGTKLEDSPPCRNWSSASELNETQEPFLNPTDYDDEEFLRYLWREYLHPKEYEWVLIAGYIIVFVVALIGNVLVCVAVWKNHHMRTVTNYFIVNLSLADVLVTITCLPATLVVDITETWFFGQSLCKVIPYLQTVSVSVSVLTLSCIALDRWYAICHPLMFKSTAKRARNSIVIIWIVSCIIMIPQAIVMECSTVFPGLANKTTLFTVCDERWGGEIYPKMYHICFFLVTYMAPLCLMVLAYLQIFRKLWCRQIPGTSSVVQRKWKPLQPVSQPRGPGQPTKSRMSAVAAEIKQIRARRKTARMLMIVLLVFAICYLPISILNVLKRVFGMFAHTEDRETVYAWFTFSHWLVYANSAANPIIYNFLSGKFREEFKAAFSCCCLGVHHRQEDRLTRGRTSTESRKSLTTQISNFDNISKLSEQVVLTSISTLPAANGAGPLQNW
Measurement Notes: Radioligand displacement, [3H]EMPA
Assay Setup: Ki [nM ± SD]
Assay Readout: Ki

Data request: Recorded Ki for COc1ccccc1OCCNCCCOc1ccc2c(c1)NC(=O)CO2 [ST171] with orexin OX2 (Homo sapiens, UniProt O43614), please?
Data returned: > 50000 nM

* * *

Tested Target: 5-HT1AR (Homo sapiens, UniProt P08908)
Sequence (P08908 1-422): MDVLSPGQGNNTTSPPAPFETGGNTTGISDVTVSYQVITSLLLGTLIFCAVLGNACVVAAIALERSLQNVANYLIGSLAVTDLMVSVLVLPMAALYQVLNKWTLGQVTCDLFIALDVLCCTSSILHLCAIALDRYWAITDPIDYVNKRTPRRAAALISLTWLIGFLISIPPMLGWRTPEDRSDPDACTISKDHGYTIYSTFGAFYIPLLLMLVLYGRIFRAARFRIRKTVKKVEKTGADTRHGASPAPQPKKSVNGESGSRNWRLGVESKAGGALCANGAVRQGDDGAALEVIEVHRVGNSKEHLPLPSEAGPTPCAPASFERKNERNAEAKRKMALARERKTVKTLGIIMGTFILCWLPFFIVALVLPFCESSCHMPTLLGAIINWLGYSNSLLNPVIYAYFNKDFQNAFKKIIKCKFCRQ
Measurement Notes: cell-based
Assay Readout: pEC50
API: returns pEC50 as number; meaning -log10 of concentration in mol/L.

Data request: Recorded pEC50 for `COc1ccccc1OCCNCCCOc1ccc2c(c1)NC(=O)CO2` with 5-HT1AR (Homo sapiens, UniProt P08908), please?
Data returned: 8.80

* * *

Tested Target: UniProtKB P11229
Sequence (P11229 whole entry): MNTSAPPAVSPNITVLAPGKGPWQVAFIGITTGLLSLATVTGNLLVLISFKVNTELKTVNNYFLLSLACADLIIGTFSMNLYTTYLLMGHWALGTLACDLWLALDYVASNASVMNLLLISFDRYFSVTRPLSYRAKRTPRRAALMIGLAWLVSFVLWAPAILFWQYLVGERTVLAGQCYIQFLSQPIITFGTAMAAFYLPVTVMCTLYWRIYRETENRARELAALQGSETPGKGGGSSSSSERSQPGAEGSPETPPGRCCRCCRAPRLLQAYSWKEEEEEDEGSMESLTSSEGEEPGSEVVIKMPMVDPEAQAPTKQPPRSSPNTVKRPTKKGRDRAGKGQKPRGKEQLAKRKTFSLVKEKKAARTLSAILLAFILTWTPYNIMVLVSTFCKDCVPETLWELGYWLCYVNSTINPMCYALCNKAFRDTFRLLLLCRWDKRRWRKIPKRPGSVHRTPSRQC
Measurement Notes: Radioligand displacement, [3H]NMS
Assay Setup: pKi
Assay Readout: Ki

Data request: Look at this molecule and give its reported Ki. COc1ccccc1OCCNCCCOc1ccc2c(c1)NC(=O)CO2 [ST171]
Data returned: 10.3 µM

* * *

Tested Target: muscarinic M3 (Homo sapiens, UniProt P20309)
Sequence (P20309 whole entry): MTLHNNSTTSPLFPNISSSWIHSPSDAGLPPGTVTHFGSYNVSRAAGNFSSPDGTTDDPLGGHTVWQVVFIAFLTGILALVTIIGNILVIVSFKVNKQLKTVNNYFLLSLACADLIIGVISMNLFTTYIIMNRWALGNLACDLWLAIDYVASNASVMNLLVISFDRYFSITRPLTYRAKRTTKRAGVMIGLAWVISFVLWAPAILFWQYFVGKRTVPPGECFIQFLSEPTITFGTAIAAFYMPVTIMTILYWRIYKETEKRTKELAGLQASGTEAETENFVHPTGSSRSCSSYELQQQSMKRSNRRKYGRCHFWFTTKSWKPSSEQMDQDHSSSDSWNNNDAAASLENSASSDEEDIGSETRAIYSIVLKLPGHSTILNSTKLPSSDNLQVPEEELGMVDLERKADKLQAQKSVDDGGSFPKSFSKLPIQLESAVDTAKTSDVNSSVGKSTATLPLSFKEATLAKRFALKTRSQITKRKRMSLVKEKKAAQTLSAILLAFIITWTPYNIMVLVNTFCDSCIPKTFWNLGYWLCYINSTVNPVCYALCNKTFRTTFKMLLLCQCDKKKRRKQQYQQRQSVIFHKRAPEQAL
Measurement Notes: Radioligand displacement, [3H]NMS
Assay Setup: Ki [nM ± SD]
Assay Readout: Ki (nM)
Write the answer as a number in nM, unit excluded.

Data request: Look at this compound and give its reported Ki. `COc1ccccc1OCCNCCCOc1ccc2c(c1)NC(=O)CO2`
Data returned: 49000

* * *

Tested Target: 5-HT6R (Homo sapiens, UniProt P50406)
Construct: host or cells: HEK293T, transient; membranes
Sequence (P50406 whole entry): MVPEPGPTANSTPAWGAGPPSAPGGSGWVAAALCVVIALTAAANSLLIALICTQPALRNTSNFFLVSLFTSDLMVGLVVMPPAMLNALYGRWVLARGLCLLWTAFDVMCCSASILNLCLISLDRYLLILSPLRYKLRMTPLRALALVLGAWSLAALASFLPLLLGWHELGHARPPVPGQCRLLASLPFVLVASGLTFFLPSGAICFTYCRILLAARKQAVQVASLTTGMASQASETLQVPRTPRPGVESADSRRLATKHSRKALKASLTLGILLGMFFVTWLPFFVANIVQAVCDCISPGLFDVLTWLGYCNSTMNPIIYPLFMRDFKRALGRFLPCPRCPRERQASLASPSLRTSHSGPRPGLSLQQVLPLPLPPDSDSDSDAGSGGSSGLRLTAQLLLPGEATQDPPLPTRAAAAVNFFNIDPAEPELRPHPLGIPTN
Measurement Notes: Radioligand competition, displacement of [3H]LSD
Type: binding
pKi: −log10 of the molar value.
Assay Readout: pKi

Data request: Look at this molecule and give its reported pKi. Cc1ccc(CNCC2(F)CCN(C(=O)c3ccc(F)c(Cl)c3)CC2)nc1 [befiradol, reference compound]
Data returned: < 4.30

* * *

Tested Target: 5-HT1AR Y96^2.64A (Homo sapiens, UniProt P08908, Y96A)
Sequence (P08908 1-422 Y96A): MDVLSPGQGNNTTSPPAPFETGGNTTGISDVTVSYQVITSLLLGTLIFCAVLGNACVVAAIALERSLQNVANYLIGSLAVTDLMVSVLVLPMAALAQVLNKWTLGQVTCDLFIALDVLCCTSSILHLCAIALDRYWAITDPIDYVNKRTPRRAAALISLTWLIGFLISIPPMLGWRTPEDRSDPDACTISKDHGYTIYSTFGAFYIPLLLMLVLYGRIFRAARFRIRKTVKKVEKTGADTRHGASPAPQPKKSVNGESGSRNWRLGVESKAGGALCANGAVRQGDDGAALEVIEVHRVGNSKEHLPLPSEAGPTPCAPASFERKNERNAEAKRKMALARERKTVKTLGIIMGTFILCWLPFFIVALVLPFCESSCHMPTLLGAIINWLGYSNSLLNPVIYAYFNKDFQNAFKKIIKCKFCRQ
Measurement Notes: GloSensor inhibition of cAMP accumulation in HEK293AΔGs
Assay type: cell-based
Assay Setup: HEK293AΔGs, Y96A; read-out: EC50 [nM ± SEM], inhibition of cAMP accumulation
Assay Readout: EC50 (nM)
Write the answer as a number in nM, unit excluded.

Data request: Recorded EC50 for COc1ccccc1OCCNCCCOc1ccc2c(c1)NC(=O)CO2 [ST171] with 5-HT1AR Y96^2.64A (Homo sapiens, UniProt P08908, Y96A), please?
Data returned: 14

* * *

Tested Target: 5-HT1AR F112^3.28W (Homo sapiens, UniProt P08908, F112W)
Measurement Notes: GloSensor cAMP assay in HEK293A cells
Assay type: cell-based
Assay Setup: HEK293A, GloSensor, F112W; read-out: EC50 left [nM±SEM], inhibition of cAMP accumulation
Assay Readout: EC50 (nM)
Write the answer as a number in nM, unit excluded.

Data request: Look at this compound and give its reported EC50. COc1ccccc1OCCNCCCOc1ccc2c(c1)NC(=O)CO2 [ST171]
Data returned: 1.7

* * *

Tested Target: adrenergic α2B (Homo sapiens, UniProt P18089)
Measurement Notes: Radioligand displacement, [3H]RX821002
Assay Setup: Ki [nM ± SD]
Assay Readout: Ki (nM)
Write the answer as a number in nM, unit excluded.

Data request: Look at this molecule and give its reported Ki. `COc1ccccc1OCCNCCCOc1ccc2c(c1)NC(=O)CO2`
Data returned: 110

* * *

Tested Target: adrenergic α2B (Homo sapiens)
Sequence (P18089 1-450): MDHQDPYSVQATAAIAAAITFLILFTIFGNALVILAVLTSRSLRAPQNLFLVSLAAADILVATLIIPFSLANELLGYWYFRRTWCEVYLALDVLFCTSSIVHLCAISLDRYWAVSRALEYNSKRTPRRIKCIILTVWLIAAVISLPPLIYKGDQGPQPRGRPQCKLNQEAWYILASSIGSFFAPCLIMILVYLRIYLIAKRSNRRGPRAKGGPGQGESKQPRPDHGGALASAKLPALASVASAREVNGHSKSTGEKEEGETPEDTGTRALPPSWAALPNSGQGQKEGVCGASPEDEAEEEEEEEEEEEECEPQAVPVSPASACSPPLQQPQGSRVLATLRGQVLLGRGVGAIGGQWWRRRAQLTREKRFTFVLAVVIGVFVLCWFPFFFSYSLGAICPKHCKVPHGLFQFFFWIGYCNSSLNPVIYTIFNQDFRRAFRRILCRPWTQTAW
Measurement Notes: Radioligand displacement, [3H]RX821002
Assay Setup: pKi
Assay Readout: Ki (nM)
Write the answer as a number in nM, unit excluded.

Data request: Look at this compound and give its reported Ki. `COc1ccccc1OCCNCCCOc1ccc2c(c1)NC(=O)CO2`
Data returned: 103

* * *

Tested Target: muscarinic M3 (Homo sapiens, UniProt P20309)
Measurement Notes: Radioligand displacement, [3H]NMS
Assay Setup: pKi
Assay Readout: Ki
Remember to follow the number with its unit.

Data request: Look at this compound and give its reported Ki. COc1ccccc1OCCNCCCOc1ccc2c(c1)NC(=O)CO2 [ST171]
Data returned: 41.5 µM

* * *

Tested Target: adrenergic α2C (Homo sapiens, UniProt P18825)
Sequence (P18825 whole entry): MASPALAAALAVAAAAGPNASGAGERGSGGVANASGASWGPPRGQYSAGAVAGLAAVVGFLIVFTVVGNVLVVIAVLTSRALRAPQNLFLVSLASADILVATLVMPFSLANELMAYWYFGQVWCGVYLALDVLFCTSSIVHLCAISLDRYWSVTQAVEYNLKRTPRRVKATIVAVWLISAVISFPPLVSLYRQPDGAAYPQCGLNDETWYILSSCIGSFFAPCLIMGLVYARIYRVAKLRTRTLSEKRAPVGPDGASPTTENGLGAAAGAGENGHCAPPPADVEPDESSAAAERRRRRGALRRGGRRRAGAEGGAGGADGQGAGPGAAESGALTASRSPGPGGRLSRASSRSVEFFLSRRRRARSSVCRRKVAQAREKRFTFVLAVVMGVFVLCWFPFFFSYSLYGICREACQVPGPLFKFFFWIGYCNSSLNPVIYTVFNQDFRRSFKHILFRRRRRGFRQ
Measurement Notes: Radioligand displacement, [3H]RX821002
Assay Setup: Ki [nM ± SD]
Assay Readout: Ki

Data request: Look at this compound and give its reported Ki. COc1ccccc1OCCNCCCOc1ccc2c(c1)NC(=O)CO2 [ST171]
Data returned: 28 nM

* * *

Tested Target: adrenergic β1 (Homo sapiens, UniProt P08588)
Sequence (P08588 whole entry): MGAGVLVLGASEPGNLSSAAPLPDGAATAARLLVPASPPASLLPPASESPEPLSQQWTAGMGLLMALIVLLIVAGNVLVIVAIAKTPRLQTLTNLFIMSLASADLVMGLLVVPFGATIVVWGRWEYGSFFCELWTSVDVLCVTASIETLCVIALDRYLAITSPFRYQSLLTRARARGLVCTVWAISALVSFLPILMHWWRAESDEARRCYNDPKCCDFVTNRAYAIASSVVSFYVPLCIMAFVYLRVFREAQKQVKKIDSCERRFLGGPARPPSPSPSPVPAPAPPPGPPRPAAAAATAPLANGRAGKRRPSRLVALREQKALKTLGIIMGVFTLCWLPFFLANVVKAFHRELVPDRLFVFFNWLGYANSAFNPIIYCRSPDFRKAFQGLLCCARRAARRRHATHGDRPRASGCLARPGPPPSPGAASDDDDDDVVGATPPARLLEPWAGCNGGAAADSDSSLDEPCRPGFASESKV
Measurement Notes: Radioligand displacement, [3H]CGP12177
Assay Setup: Ki [nM ± SD]
Assay Readout: Ki (nM)
Write the answer as a number in nM, unit excluded.

Data request: Look at this molecule and give its reported Ki. COc1ccccc1OCCNCCCOc1ccc2c(c1)NC(=O)CO2 [ST171]
Data returned: 1700
